- method.notes: Cytotoxicity against human CCD-1095SK cells assessed as growth inhibition after 96 hrs by crystal violet staining assay
- Format: cell-based
- recorded.conditions: read-out: ED50
metric: GI50 at 96 h (µM)

                            chemical_smiles        metric  value_unit  result_number
0  O[C@@H]1[C@@H](O)[C@H](OCCOc2ccc3ccccc3c2)OC[C@H]1O  GI50 at 96 h          µM            140
1  Oc1ccc2cc(OCCO[C@@H]3OC[C@@H](O)[C@H](O)[C@H]3O)ccc2c1  GI50 at 96 h          µM            280
2  O[C@@H]1[C@@H](O)[C@H](OCCOCCOCCOc2ccc3ccccc3c2)OC[C@H]1O  GI50 at 96 h          µM             70
3  O[C@@H]1[C@@H](O)[C@H](OCc2ccc3ccccc3c2)OC[C@H]1O  GI50 at 96 h          µM            298
4  O[C@@H]1[C@@H](O)[C@H](Oc2ccc3ccccc3c2)OC[C@H]1O  GI50 at 96 h          µM            152
5  Oc1ccc2cc(CO[C@@H]3OC[C@@H](O)[C@H](O)[C@H]3O)ccc2c1  GI50 at 96 h          µM            223
6  O[C@@H]1[C@@H](O)[C@H](OCCOCCOc2ccc3ccccc3c2)OC[C@H]1O  GI50 at 96 h          µM            150
7  Oc1ccc2cc(O[C@@H]3OC[C@@H](O)[C@H](O)[C@H]3O)ccc2c1  GI50 at 96 h          µM            258
